# TARGET OR TEST SYSTEM: Cytochrome P450 3A4 (Homo sapiens)
# ASSAY DETAILS: Cytochrome P450 Family 3 Subfamily A Member 4 (CYP3A4) small molecule antagonists: luciferase reporter qHTS assay (AID 1671201); note: nearly all actives have a fitted effect of over 50% in size
# EXPERIMENTAL CONDITIONS: P450-Glo CYP3A4 enzyme, luciferin luminescence, 1 h; series mostly up to 115 µM
Results filed as inconclusive are left out. Activity calls are given as the source filed them. Calls come from the whole dose curve; as a rule, active = well fitted inhibition curve with a large enough effect in the repeat runs; inconclusive = weak or mixed curves; inactive = no such curve, though single readings can be large or run the other way.
Pick one: True = active, False = inactive

Observe how each entry below is paired with its result.
• COC(=O)c1ccc(C=O)cc1 = False
• CC(C)CC(C)CC(O)CC(C)C (configuration not stated) = False
• CCN1CCCC1=O = False
• O=C(O)Cc1cccc2ccccc12 = False
• COCC(C)N (configuration not stated) = False

Data request: Write down the call the test reported for this compound. Item: `NC(N)=NC(N)=NCCc1ccccc1`
Data returned: False

Data request: Write down the call the test reported for this compound. Item: `CC(=O)/C=C/C1=C(C)CCCC1(C)C`
Data returned: True
